For each entry below, report its EC50 value.
Tested on: HCV replicon in Huh-7 luc/neo cells
Assay: Suppression of HCV replicon replication by conditioned media from compound-treated PBMC
Format: cell-based, HCV type 1 b
Conditions: Hepatitis C virus; conditioned media from compound-treated PBMC on Huh-7 luc/neo replicon cells (compounds 74 onward); read-out: PBMC HUH-7 EC50
The figure you give is taken to be in nM; do not add the unit.

Enquiry: Read off the recorded EC50 for CCCCNc1nc(N)ncc1OCCCc1ccccc1OC
Return: 703

Enquiry: Give the reported value of EC50 for this record: CCCCNc1nc(N)ncc1OCC(C)(C)O
Return: 19000

Enquiry: Assign EC50 to the following record: CCC[C@H](CCO)Nc1nc(N)ncc1OCc1ccccc1
Return: 3230

Enquiry: Return EC50 for the following compound: CCCCNc1nc(N)ncc1OCc1cccc(C(N)=O)n1
Return: 173

Enquiry: Please list EC50 recorded for the compound CCCCNc1nc(N)ncc1OCC(=O)c1ccc(OC)cc1
Return: 696

Enquiry: Kindly indicate its recorded EC50. Item: CCCCNc1nc(N)ncc1OCc1c(C)noc1-c1ccccc1
Return: 976

Enquiry: Recall and state the measured EC50 for CCCCNc1nc(N)ncc1OCCCCc1ccccc1 .
Return: 740

Enquiry: Quick one: give measured EC50 for CCCC(C)Nc1nc(N)ncc1OCCCc1ccccc1 (stereo not drawn)
Return: 3350

Enquiry: Return EC50 for the following compound: CCCCNc1nc(N)ncc1OCCCc1ccc(Cl)cc1
Return: 393

Enquiry: Identify measured EC50 corresponding to CCCCNc1nc(N)ncc1OCc1cccc(C(=O)c2ccccc2)c1
Return: 725

Enquiry: Identify EC50 associated with the compound CCCCNc1nc(N)ncc1OCCCc1ccccc1Br
Return: 6770

Enquiry: Entry CCCCNc1nc(N)ncc1OCCOc1cc(OC)c(OC)c(OC)c1 needs its EC50 filled in; supply it.
Return: 585

Enquiry: Specify EC50 for CCCCNc1nc(N)ncc1OCc1ccc(C(=O)OC)o1 and stop.
Return: 273

Enquiry: State its EC50: CCCC[C@@H](CCO)Nc1nc(N)ncc1OCc1ncc(C)c(OC)c1C
Return: 7

Enquiry: Report EC50, nothing else, for this compound: CCCCNc1nc(N)ncc1OCCCc1cc(OC)ccc1OC
Return: 634

Enquiry: Indicate the recorded EC50 value for this compound: CCC(CO)Nc1nc(N)ncc1OC (stereo not drawn)
Return: 20200

Enquiry: Please supply the value of reported EC50 for the item CCCCNc1nc(N)ncc1OCc1cc(-c2ccco2)on1
Return: 66

Enquiry: Return EC50 (reported value) for this compound: CCCCNc1nc(N)ncc1OCCn1ccc(=O)c2ccc(OC)cc21
Return: 1320

Enquiry: Respond only with EC50 recorded for CCCCNc1nc(N)ncc1OCCCc1cc(OC)c(OC)cc1OC
Return: 629

Enquiry: Tell me its EC50 given CCCCNc1nc(N)ncc1OCCCc1ccc(OC)cc1OC as the entry.
Return: 728

---

Biological target: human TLR8 (wild type sequence) (Homo sapiens, UniProt Q9NR97)
Construct: expressed in transfected cells; host or cells: HEK293
Test: TLR8 cellular NFκB-luc reporter assay, wild type TLR8
Assay type: cell-based
Set-up: unit not given here
Conditions: lowest effective concentration
Note to self: use class 1 only for TLR8-wt_LEC readings below 0.1; a reading exactly at 0.1 still gets class 0.

Enquiry: Given CCC[C@@H](CCO)Nc1nc(N)ncc1OCc1cn2ccccc2n1 [Compound 205] , is recorded TLR8-wt_LEC strictly lower than 0.1?
Return: class 1

Enquiry: Does the reported TLR8-wt_LEC of CCCC[C@@H](CCO)Nc1nc(N)ncc1OCc1cn2ccccc2n1 [Compound 207] stay below 0.1?
Return: class 1

Enquiry: Is TLR8-wt_LEC of CCCCNc1nc(N)ncc1OCc1cn2ccccc2n1 [Compound 209] strictly below 0.1?
Return: class 1

Enquiry: Is TLR8-wt_LEC strictly under 0.1 for the entry CCC[C@@H](CO)Nc1nc(N)ncc1OCc1cccc(C)n1 [Compound 202] ?
Return: class 1

Enquiry: Please check: TLR8-wt_LEC for CCCCNc1nc(N)ncc1OCc1ccc(C#N)cc1 [Compound 210] , strictly under 0.1 or not?
Return: class 0

Enquiry: I wonder whether CCCC[C@@H](CO)Nc1nc(N)ncc1OCCOC [Compound 197] has TLR8-wt_LEC below 0.1. Can you tell?
Return: class 0

Enquiry: Is it true that TLR8-wt_LEC reported for CCCCNc1nc(N)ncc1OCc1cn2ccncc2n1 [Compound 211] is less than 0.1?
Return: class 1

Enquiry: Identify whether the molecule CCCCNc1nc(N)ncc1OCc1cnccn1 [Compound 199] records TLR8-wt_LEC below 0.1.
Return: class 0

Enquiry: I'd appreciate it if you could check whether CCCC[C@@H](CO)Nc1nc(N)ncc1OCCCc1ccc(OC)cc1 [Compound 201] has TLR8-wt_LEC smaller than 0.1.
Return: class 0

Enquiry: Is the reported TLR8-wt_LEC for CCCC[C@@H](CO)Nc1nc(N)ncc1OCc1ccc2ccccc2n1 [Compound 198] strictly below 0.1?
Return: class 1

---

Biological target: human TLR7 (wild type sequence) (Homo sapiens)
Construct: expressed in transfected cells; host or cells: HEK293
Sequence (Q9NYK1 27-1049): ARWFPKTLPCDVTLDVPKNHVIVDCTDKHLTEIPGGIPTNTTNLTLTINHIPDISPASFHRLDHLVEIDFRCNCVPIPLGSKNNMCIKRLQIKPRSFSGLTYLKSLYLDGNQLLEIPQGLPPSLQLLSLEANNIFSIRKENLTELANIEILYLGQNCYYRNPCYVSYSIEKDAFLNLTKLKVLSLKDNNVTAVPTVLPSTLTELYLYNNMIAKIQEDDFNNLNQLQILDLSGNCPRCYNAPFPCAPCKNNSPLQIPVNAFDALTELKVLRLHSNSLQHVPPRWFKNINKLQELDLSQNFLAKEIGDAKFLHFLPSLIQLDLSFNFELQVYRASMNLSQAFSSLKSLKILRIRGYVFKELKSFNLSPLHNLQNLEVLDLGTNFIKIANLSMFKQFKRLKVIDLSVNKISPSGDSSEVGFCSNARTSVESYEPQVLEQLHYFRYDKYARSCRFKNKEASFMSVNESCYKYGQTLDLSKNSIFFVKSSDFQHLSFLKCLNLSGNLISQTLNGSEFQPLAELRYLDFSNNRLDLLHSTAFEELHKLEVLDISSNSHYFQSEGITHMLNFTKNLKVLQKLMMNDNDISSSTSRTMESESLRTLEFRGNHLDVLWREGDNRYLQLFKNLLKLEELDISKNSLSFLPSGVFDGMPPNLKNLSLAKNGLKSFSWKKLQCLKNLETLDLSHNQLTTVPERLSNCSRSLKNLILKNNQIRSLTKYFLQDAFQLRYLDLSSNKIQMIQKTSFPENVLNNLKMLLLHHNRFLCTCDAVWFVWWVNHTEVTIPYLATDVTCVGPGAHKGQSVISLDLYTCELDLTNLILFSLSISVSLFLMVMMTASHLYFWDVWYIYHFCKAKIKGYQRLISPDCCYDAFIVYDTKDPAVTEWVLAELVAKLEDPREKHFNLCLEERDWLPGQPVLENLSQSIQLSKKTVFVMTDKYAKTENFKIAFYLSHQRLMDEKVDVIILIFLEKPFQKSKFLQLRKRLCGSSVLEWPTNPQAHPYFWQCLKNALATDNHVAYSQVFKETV
Test: TLR7 cellular NFκB-luc reporter assay, wild type TLR7
Assay type: cell-based
Set-up: unit not given here
Settings: lowest effective concentration, wild type TLR7 (compounds 1-73)
Please respond with reported TLR7-wt_LEC for every item in the list.

Enquiry: Fill in reported TLR7-wt_LEC for this entry: CCCCNc1nc(N)ncc1OCCC
Return: 6.18

Enquiry: Give the value of TLR7-wt_LEC reported for the following: CCCC(CO)Nc1nc(N)ncc1OC (stereo not drawn)
Return: 21.26

Enquiry: Could you please provide reported TLR7-wt_LEC for CCCCNc1nc(N)ncc1Oc1ccccc1OC ? Thanks!
Return: 8.47

---

Please respond with reported pEC50 for every item in the list.
Tested on: HCV replicon in Huh-7 luc/neo cells
Test: Suppression of HCV replicon replication by conditioned media from compound-treated PBMC
Format: cell-based, HCV type 1 b
Conditions: Hepatitis C virus; conditioned media from compound-treated PBMC on Huh-7 luc/neo replicon cells (compounds 74 onward); read-out: PBMC HUH-7 EC50
Kindly note that pEC50 refers to -log10 of the concentration in mol/L and answer with the value alone.

Enquiry: # lookup: HCV replicon in Huh-7 luc/neo cells pEC50, key = CCCCNc1nc(N)ncc1OCCOc1ccc(OC)c(OC)c1
Return: 6.76

Enquiry: Identify measured pEC50 obtained with HCV replicon in Huh-7 luc/neo cells for CCCCNc1nc(N)ncc1OCc1cc2c(cn1)[nH]c1ccccc12 .
Return: 7.74

Enquiry: Specify pEC50 for CCCC[C@H](Nc1nc(N)ncc1OCCCc1ccccc1)C(=O)OC , system HCV replicon in Huh-7 luc/neo cells.
Return: 4.85

Enquiry: Give HCV replicon in Huh-7 luc/neo cells pEC50 for the following compound: CCCCNc1nc(N)ncc1OCCCc1ccncc1
Return: 6.71

---

Target: human TLR8 (wild type sequence) (Homo sapiens)
Construct: expressed in transfected cells; host or cells: HEK293
Sequence (Q9NR97 27-1041): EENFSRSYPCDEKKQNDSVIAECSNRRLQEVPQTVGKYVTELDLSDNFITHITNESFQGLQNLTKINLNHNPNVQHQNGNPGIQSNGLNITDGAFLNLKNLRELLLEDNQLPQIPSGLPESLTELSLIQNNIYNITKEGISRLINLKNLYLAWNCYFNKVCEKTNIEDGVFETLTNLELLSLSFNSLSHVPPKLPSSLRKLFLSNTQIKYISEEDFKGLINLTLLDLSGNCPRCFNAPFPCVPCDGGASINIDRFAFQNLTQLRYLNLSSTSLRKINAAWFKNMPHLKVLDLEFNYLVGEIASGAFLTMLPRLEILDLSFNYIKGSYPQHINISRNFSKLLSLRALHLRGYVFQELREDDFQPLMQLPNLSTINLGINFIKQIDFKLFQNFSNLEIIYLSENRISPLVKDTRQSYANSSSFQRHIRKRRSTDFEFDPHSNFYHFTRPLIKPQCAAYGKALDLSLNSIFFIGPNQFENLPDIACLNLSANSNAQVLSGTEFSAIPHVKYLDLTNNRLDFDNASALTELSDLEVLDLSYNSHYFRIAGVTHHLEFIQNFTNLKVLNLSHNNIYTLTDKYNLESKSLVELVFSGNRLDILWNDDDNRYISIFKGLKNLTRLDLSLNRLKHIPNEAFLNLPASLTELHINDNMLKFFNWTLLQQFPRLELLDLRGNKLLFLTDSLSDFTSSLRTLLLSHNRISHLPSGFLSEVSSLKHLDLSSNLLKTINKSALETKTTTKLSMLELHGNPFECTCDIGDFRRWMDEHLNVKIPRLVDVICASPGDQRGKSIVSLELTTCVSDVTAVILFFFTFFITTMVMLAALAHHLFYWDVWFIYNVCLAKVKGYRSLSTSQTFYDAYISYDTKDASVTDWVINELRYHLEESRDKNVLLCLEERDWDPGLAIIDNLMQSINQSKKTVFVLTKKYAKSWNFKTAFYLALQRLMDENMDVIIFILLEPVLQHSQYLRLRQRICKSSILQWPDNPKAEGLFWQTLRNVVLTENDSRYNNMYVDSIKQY
Assay: TLR8 cellular NFκB-luc reporter assay, wild type TLR8
Format: cell-based
Set-up: unit not given here
Settings: lowest effective concentration, wild type TLR8 (compounds 74 onward)
Experimental: The ability of compounds to activate human TLR7 and/or TLR8 was assessed in a cellular reporter assay using HEK293 cells transiently transfected with a TLR7 or TLR8 expression vector and NFκB-luc reporter construct. In one instance the TLR expression construct expresses the respective wild type sequence or a mutant sequence comprising a deletion in the second leucine-rich repeat of the TLR. Briefly, HEK293 cells were grown in culture medium (DMEM supplemented with 10% FCS and 2 mM Glutamine). […]
TLR 8 wt LEC strictly less than 2 = TRUE. Otherwise FALSE.

Enquiry: Please determine if CCCCNc1nc(N)ncc1OCCCc1ccc(Cl)c(Cl)c1 [Compound 169] is below 2 in terms of TLR 8 wt LEC.
Return: FALSE

Enquiry: # check: TLR 8 wt LEC < 2 for CCCCNc1nc(N)ncc1OCCCc1cc(OC)ccc1OC [Compound 148]
Return: FALSE

Enquiry: Regarding CCC[C@@H](CCO)Nc1nc(N)ncc1OCc1ncc(C)c(OC)c1C [Compound 187] , kindly confirm whether its TLR 8 wt LEC is beneath 2.
Return: TRUE

Enquiry: # TODO verify TLR 8 wt LEC < 2 strictly for this compound: CCCC(C)Nc1nc(N)ncc1OCCCc1ccccc1 (centres unmarked) [Compound 112]
Return: FALSE

Enquiry: Please state whether TLR 8 wt LEC is below 2 for CCCCNc1nc(N)ncc1OCCCc1ccncc1 [Compound 177]
Return: TRUE

Enquiry: Decide: TLR 8 wt LEC of CCCCNc1nc(N)ncc1OCc1cccc(C)n1 [Compound 122] strictly below 2?
Return: TRUE

Enquiry: Lab note: TLR 8 wt LEC threshold 2. Does this compound come in strictly under it? CCC[C@@H](CO)Nc1nc(N)ncc1OCCCc1ccccc1 [Compound 125]
Return: TRUE

Enquiry: Below 2 on TLR 8 wt LEC? Entry CCCCNc1nc(N)ncc1OCCOc1ccnc2ccccc12 [Compound 128]
Return: FALSE

Enquiry: Hi there! Is TLR 8 wt LEC for CCCCNc1nc(N)ncc1OCc1nc(C)oc1C [Compound 178] below 2, do you know?
Return: TRUE

Enquiry: Here's an entry: CCCCNc1nc(N)ncc1O[C@@H](C)c1ccccc1 [Compound 99] . Is its TLR 8 wt LEC below 2?
Return: TRUE

Enquiry: API: query returns whether the compound falls strictly under 2 in TLR 8 wt LEC. Query: CCCCNc1nc(N)ncc1OCCCc1cc(OC)cc(OC)c1 [Compound 147]
Return: FALSE

Enquiry: Answer whether the compound CCCCNc1nc(N)ncc1OCCCc1ccc(OC)cc1OC [Compound 163] has TLR 8 wt LEC strictly less than 2
Return: FALSE

Enquiry: Report whether reported TLR 8 wt LEC is lower than 2 (strictly) for CCCCNc1nc(N)ncc1OCCOc1ccc(C(=O)OC)cc1OC [Compound 132]
Return: FALSE

The reported numbers originate from patent US11541050B2.
